Tested on: SF-539
Assay: NCI tumour cell line growth inhibition, 48 h
Activity calls are given as the source filed them. No stated cut-off is given here; in the data, active = GI50 up to about 1.1 µM and inactive = higher.
Answer with one of the outcomes active, inactive

*Q* What call does the record list for Cc1c(N)nc([C@H](CC(N)=O)NC[C@H](N)C(N)=O)nc1C(=O)N[C@H](C(=O)N[C@H](C)[C@@H](O)CC(=O)N[C@H](C(=O)NC(O[C@@H]1O[C@@H](C)[C@@H](N)[C@@H](O)[C@H]1O)C(O)c1nc(-c2nc(C(=O)NCCC[S+](C)C)cs2)cs1)[C@@H](C)O)[C@H](O[C@@H]1O[C@@H](CO)[C@@H](O)[C@H](O)[C@@H]1O[C@H]1O[C@H](CO)[C@@H](O)[C@H](OC(N)=O)[C@@H]1O)c1c[nH]cn1 (some centres not stated) ?
*A* inactive

*Q* So what was the verdict on COc1ccc(C2C=C(c3ccc4c(c3)OCO4)Oc3c2c(=O)oc2ccccc32)cc1OC (configuration not stated) in this test?
*A* active

*Q* Check the results log: what was the call for COc1ccc(N[S+]([O-])CCCc2ccccc2)cc1 (configuration not stated) ?
*A* inactive

*Q* What did the test return for CC1=C2C(=CC(C)(C)C2O)C(=O)C(C)(O)C12CC2 (configuration not stated) ?
*A* active

*Q* Can you look up the reported call for CC(=O)NC1=C(C)C(=O)c2c(nc3n2CCC3O)C1=O (configuration not stated) for me?
*A* inactive

*Q* Which outcome did this test record for the compound CCOc1ccc2c(ccc(/C=C/c3cc(C)c4cccnc4c3O)[n+]2C)c1 ?
*A* active

*Q* Tell me the assay call for CN(C)CC1CCC/C(=C\c2ccc(OC(=O)/C=C/c3ccc(Cl)c(Cl)c3)cc2)C1=O (configuration not stated) please.
*A* inactive

====

Tested on: RPMI-8226
Experiment: NCI tumour cell line growth inhibition, 48 h
The source made the active and inactive calls. Rule as the data show it: active = GI50 up to about 1.1 µM and inactive = higher.
The reply should name one outcome from 1 (yes) for active, 0 (no) for inactive

*Q* Recorded call for COc1ccc(-c2cc(=O)c3c(O)cc(O)cc3o2)cc1OC ?
*A* 0 (no)

*Q* I would be grateful if you could indicate the recorded call for CCCCCCCCCCCCCCCCCCOC[C@H](COP(=O)(O)O[C@H]1[C@H](O)[C@@H](O)[C@H](O)C[C@H]1O)OC .
*A* 0 (no)

*Q* # lookup: test call for CC(=O)n1[nH]c(=O)n(-c2ccccc2)c1=O
*A* 0 (no)

*Q* Fill in: this test's call for CC1=NC(C)(COC(=O)C2(C)NC(C)(CO)CO2)COC1=O (stereo unspecified) is ___
*A* 0 (no)

*Q* So what was the verdict on CCc1c(C#N)c(=O)[nH]c(=O)n1CCN1CCN(C(=O)NCCCCCCNC(=O)N2CCN(CCn3c(CC)c(C#N)c(=O)[nH]c3=O)CC2)CC1 in this test?
*A* 0 (no)

*Q* Could you kindly confirm the outcome this assay logged for CSc1c(C#N)c(S)[nH]c(=O)c1C#N ?
*A* 0 (no)

*Q* Entry Fc1ccc(C(OCCN2CCC3CCC(C2)N3C/C=C/c2ccco2)c2ccc(F)cc2)cc1 (stereo unspecified) : call = ?
*A* 0 (no)

*Q* Record lookup: outcome of this test for O=c1[nH]c(=O)n(C2OC(COP(=O)(O)OP(=O)(O)OC3OC(CO)C(O)C(O)C3O)C(O)C2O)cc1F (stereo unspecified) ?
*A* 1 (yes)

*Q* Answer briefly: the call reported for C=CCOC(=O)N1c2ccc(O)cc2[C@@]23O[C@@]24[C@@H]1C#C/C=C\C#C[C@]3(O)C(=O)C[C@@H]4C in this assay.
*A* 0 (no)

*Q* Any idea what this test logged for O=C(Nc1ccccc1)OCc1nc2c([nH]1)C(=O)C=CC2=O ?
*A* 0 (no)

*Q* # outcome recorded in this test, key = CC(=O)NC1=C(C)C(=O)c2c(nc3n2CCC3O)C1=O (stereo unspecified)
*A* 0 (no)

*Q* Look up the recorded call for O=c1oc2c(Cl)cc(Cl)cc2cc1-c1cn2c(n1)sc1ccccc12 in this test.
*A* 0 (no)

*Q* Dear all, I need the recorded test outcome for CCc1ccccc1NC(=O)CCc1nnc(S)[nH]1 , thank you.
*A* 0 (no)

*Q* Per the assay record, what outcome was assigned to O=C(O)c1ccc(N2C=[N+]3C(=Nc4ccccc43)C2)cc1 ?
*A* 0 (no)

*Q* Can you look up the reported call for O=C(O)CCC(NC(=O)c1ccc(Nc2nc3ccccc3nc2-c2cccs2)cc1)C(=O)O (stereo unspecified) for me?
*A* 0 (no)

*Q* Could you kindly confirm the outcome this assay logged for CCN(CC)CCC(=O)c1ccc(Oc2ccc(C)cc2)cc1 ?
*A* 0 (no)

*Q* Please state the recorded outcome for this molecule: O=C1C2=C(c3ccccc31)C(c1ccccc1)N1C(=O)CSC1=N2 (stereo unspecified)
*A* 0 (no)

*Q* Tell me the assay call for Nc1ccc(C(=O)CC(N)C(=O)O)cc1O (stereo unspecified) please.
*A* 0 (no)

*Q* Recorded call for CCNC1CC(n2cc(C)c(=O)[nH]c2=O)OC1CO (stereo unspecified) ?
*A* 0 (no)

*Q* Status in this test for O=c1[nH]nc(N/N=C\c2ccc(Cl)cc2)c2ccccc12 ?
*A* 0 (no)

*Q* Dear colleague, could you share the recorded outcome for Cc1ccc(-n2cnc3c(N/N=C4\SCC(=O)N4c4ccccc4)ncnc32)cc1 when you have a moment?
*A* 1 (yes)

====

System: PC-3
Assay: NCI tumour cell line growth inhibition, 48 h
Active and inactive are the calls of the source. Rule as the data show it: active = GI50 up to about 1.1 µM and inactive = higher.
observed_property: GI50

Field GI50 (PC-3), entry CC12O[C@]3([C@H](C(=O)N4CCOC43C)[C@H]1Cl)[C@H]1O[C@H]12 (stereo not given in full) : > 100 µM (inactive)

Simply: O=c1c(C(c2ccccn2)c2c(O)oc3cc(O)ccc3c2=O)c(O)oc2cc(O)ccc12 , PC-3, GI50 = > 100 µM (inactive)

Recorded GI50 for CN(C)c1ccc(C(C#N)N2CCCN(C(C#N)c3ccc(N(C)C)cc3)C2c2ccc(N(C)C)cc2)cc1 (stereo not given) on PC-3 was > 100 µM (inactive)

Bench note, PC-3: entry Cc1cc2[nH]c3c(C#N)c(-c4ccccc4)c(/C=N/c4ccc(Cl)cc4)c(=O)n3c2cc1C , its GI50 = > 100 µM (inactive)

Readout GI50 for Cc1cc(O)c2c(=O)c3ccccc3[nH]c2c1 , test system PC-3, was 19.3 µM (inactive)

Cc1cn(C(CO)OC(CO)CN(O)C2C3CC4CC(C3)CC2C4)c(=O)[nH]c1=O (stereo not given) on PC-3 gives GI50 = > 100 µM (inactive)

The measured GI50 that Cc1ccc(Nc2nc(=O)c3c([nH]c4ccccc43)s2)cc1 showed for PC-3 is 15.1 µM (inactive)

Entry CC(=O)n1[nH]c(=O)n(-c2ccccc2)c1=O under PC-3 had GI50 of > 100 µM (inactive)

Result for CC(C)(C)OC(=O)NC1CCCCC1NC(=O)C(=O)NC1CCCCC1NC(=O)OC(C)(C)C (stereo not given) , tested on PC-3, GI50: > 100 µM (inactive)

Value (GI50, PC-3) for record O=c1[nH]nc(N/N=C\c2ccc(Cl)cc2)c2ccccc12 = 17.2 µM (inactive)

====

Exercise: state measured GI50 for each of the compounds provided.
Tested on: UACC-257
Assay: NCI tumour cell line growth inhibition, 48 h
Activity calls are given as the source filed them. Cut-off read from the data, not from the text of the source: active = GI50 up to about 1.1 µM and inactive = higher.

Let me check: CC1=CCCC(OC(N)=O)C1 (configuration not stated) , system UACC-257, measured GI50 is > 100 µM (inactive)

GI50 for UACC-257 with input CCCCCCOC(=O)/C=C/[C@]1(CO)C/C(=C/CC(C(C)C)C(C)C)C(=O)O1 equals 16.5 µM (inactive)

Observed GI50 on UACC-257, entry OC(CC(c1ccccc1)c1ccc(Cl)cc1)c1ccc(Cl)cc1 (configuration not stated) , equals 29.4 µM (inactive)

Entry C/C(=N\NC(N)=S)c1nc2cccnc2[nH]1 ; assay system UACC-257; GI50 recorded at > 88.5 µM (inactive)

GI50 of O=C(NCc1ccccc1)c1cc2cc(O)c(O)cc2cn1 , assay on UACC-257, is 26.9 µM (inactive)

Reported GI50 (UACC-257) for entry O=C1Nc2ccc(Cl)c(I)c2C1=O is 17.9 µM (inactive)

The reported UACC-257 GI50 of C/C1=C\CC[C@@]2(C)O[C@@H]2C[C@@H]2[C@H](C/C(C)=C/CC1)OC(=O)[C@]21CO1 is > 100 µM (inactive)

Kindly note: UACC-257, CCOC(=O)c1nc2cc(C(F)(F)F)ccc2nc1Nc1cc(OC)c(OC)c(OC)c1 , GI50 value reported: > 100 µM (inactive)

Item: CC(C)C1=CC23CCC4C(C)(C(=O)O)CCCC4(C)C2CC1C1C(=O)N(c2ccccc2)C(=O)C13 (configuration not stated) | System: UACC-257 | GI50: 26.1 µM (inactive)

Measured GI50 for this entry CC(C)(C)C1CCC2c3c([nH]c4ccccc34)C3C(=O)N(c4ccc([N+](=O)[O-])cc4)C(=O)C3C2C1 (configuration not stated) on UACC-257: 29.1 µM (inactive)

# CC(=O)c1c(O)cc(O)c(-c2c(C)cc(O)c3c2C(=O)c2cccc(O)c2C3=O)c1O with UACC-257: GI50 is 19.9 µM (inactive)

Field GI50 (system: UACC-257) for entry NC(=O)/C=c1/c2ccccc2n2nc3ccccc3c12 = 20.3 µM (inactive)

The value of GI50 recorded for CCOC(=O)/C=C(\C(=O)OCC)n1cc(C)c(=O)n(Cc2cnnn2COCCOC(C)=O)c1=O when tested on UACC-257 reads 13.4 µM (inactive)

Known value: UACC-257 GI50 of the compound CCOC(=O)C1(C)CCc2sc(N)c(C#N)c21 (configuration not stated) equals > 100 µM (inactive)

Item: S=C(N/N=C\c1ccccn1)N(Cc1ccccn1)Cc1ccccn1 | System: UACC-257 | GI50: 4.82 µM (inactive)

Fill in: UACC-257 GI50 for Clc1cc2nn(C3CCCCO3)nc2cc1Cl (configuration not stated) = > 100 µM (inactive)

Value (GI50, UACC-257) for record Clc1ccc(C[P+]2(c3ccccc3)CCCCC2)cc1.[O-][Cl+3]([O-])([O-])[O-] = 28.2 µM (inactive)

# lookup: Cc1ccc(Nc2nc(=O)c3c([nH]c4ccccc43)s2)cc1 on UACC-257, GI50 = 17.1 µM (inactive)

# GI50 measured on UACC-257 for item O=CNc1ccccc1OCCOc1ccccc1NC=O = > 100 µM (inactive)

Observed GI50, UACC-257, OC[C@@H](O)[C@H]1NC[C@@H](O)[C@H]1O : > 100 µM (inactive)

Noted GI50 for O=[N+]([O-])c1ccc2c(c1)c(S(=O)(=O)O)cc1nonc12 , tested on UACC-257: > 100 µM (inactive)

Record COc1ccccc1-c1cc(=O)c2cc(C)c(C)c(C(=O)O)c2o1 ; system UACC-257; GI50 = > 100 µM (inactive)
